meta.source: ChEMBL document CHEMBL3120115

system: Influenza B virus; experiment: Antiviral activity against Influenza B virus by cytopathy assay; type: functional, organism-based
Examples of compounds with documented EC50 follow.

{"columns": ["Smiles code", "Assayed target", "Value qualifier", "EC50 (µM)"],
 "data": [
  ["NC(=O)c1ncn([C@@H]2O[C@H](CO)[C@@H](O)[C@H]2O)n1", "Influenza B virus", "=", 2.4],
  ["CC(C)c1ccc(-c2cc(-c3cccs3)[nH]c(=O)c2C#N)cc1", "Influenza B virus", "=", 46],
  ["N#Cc1c(-c2ccc(Cl)cc2)cc(-c2ccccn2)[nH]c1=O", "Influenza B virus", ">", 36],
  ["N#Cc1c(-c2cccs2)cc(-c2cccs2)nc1O", "Influenza B virus", ">", 100],
  ["CC(=O)OC[C@H]1O[C@@H](n2c(-c3ccccn3)cc(-c3ccc(Cl)cc3)c(C#N)c2=O)[C@H](OC(C)=O)[C@@H](OC(C)=O)[C@@H]1OC(C)=O", "Influenza B virus", ">", 3.2],
  ["CC(=O)OC[C@H]1O[C@@H](n2c(-c3cccs3)cc(-c3ccc(C(C)C)cc3)c(C#N)c2=O)[C@H](OC(C)=O)[C@@H](OC(C)=O)[C@@H]1OC(C)=O", "Influenza B virus", "=", 40],
  ["CC(=O)OC[C@H]1O[C@@H](n2c(-c3cccs3)cc(-c3cccs3)c(C#N)c2=O)[C@H](OC(C)=O)[C@@H](OC(C)=O)[C@H]1OC(C)=O", "Influenza B virus", ">", 12],
  ["CC(=O)OC[C@H]1O[C@@H](n2c(-c3cccs3)cc(-c3cccs3)c(C#N)c2=O)[C@H](OC(C)=O)[C@@H](OC(C)=O)[C@@H]1OC(C)=O", "Influenza B virus", "=", 32]
]}
